- SYSTEM UNDER TEST: F508del in NIH 3T3 cells (Homo sapiens, UniProt P13569, DEL508-508)
- Construct: expressed in transfected cells
- Sequence (P13569 with tags, fused parts or gaps DEL508-508): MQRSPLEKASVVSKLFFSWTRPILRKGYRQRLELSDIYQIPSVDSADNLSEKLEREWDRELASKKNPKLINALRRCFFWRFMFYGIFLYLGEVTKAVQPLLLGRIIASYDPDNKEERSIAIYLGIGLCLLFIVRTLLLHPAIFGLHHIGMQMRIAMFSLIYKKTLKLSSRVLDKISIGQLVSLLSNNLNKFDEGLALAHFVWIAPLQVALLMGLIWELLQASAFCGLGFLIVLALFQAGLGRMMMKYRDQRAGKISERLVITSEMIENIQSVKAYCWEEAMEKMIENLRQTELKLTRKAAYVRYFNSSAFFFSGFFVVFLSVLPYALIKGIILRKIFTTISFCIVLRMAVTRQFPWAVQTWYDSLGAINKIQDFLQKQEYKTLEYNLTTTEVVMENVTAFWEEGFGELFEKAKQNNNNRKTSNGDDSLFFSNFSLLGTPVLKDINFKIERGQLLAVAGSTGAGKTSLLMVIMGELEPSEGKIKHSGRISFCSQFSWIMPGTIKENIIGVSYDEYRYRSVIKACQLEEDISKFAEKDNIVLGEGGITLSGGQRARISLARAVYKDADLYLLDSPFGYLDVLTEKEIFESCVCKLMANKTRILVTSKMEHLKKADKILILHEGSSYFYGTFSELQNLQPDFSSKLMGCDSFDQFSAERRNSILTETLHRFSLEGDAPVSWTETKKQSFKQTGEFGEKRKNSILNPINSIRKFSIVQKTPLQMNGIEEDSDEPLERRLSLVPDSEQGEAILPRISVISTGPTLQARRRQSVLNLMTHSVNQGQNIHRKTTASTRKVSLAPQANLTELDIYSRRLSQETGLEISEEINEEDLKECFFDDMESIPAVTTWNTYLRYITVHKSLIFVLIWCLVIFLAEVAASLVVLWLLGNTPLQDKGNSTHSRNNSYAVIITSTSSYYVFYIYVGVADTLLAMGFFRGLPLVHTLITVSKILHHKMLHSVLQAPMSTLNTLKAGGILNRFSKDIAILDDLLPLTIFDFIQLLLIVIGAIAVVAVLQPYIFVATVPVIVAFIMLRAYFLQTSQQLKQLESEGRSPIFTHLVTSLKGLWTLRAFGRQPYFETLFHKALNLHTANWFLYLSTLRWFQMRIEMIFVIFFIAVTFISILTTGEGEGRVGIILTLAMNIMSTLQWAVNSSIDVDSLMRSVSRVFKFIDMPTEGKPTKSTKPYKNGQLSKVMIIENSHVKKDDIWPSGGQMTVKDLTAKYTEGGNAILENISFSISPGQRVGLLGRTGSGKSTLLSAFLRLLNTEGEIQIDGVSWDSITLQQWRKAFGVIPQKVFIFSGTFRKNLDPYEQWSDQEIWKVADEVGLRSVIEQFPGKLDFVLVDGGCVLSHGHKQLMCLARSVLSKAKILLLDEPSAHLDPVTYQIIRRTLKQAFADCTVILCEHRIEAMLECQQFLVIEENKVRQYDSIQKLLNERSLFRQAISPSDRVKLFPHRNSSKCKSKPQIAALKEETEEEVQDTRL
- EXPERIMENTAL DETAILS: 3T3 assay: membrane potential optical assay for F508del correction
- Format: cell-based
- MEASUREMENT SETUP: NIH3T3, read-out: 3T3 Max Activity (%)
READOUT KIND: Emax

Item: `CCCc1sc(NS(=O)(=O)c2ccccc2)nc1-c1ccc(C)cc1` | Emax: > 60%

Item: `Cc1ccc(C)c(-c2nc(NS(=O)(=O)c3ccccc3)sc2C)c1` | Emax: > 60%

Item: `Cc1ccc(-c2nc(NS(=O)(=O)c3ccccc3)oc2-c2ccc(C)cc2)cc1` | Emax: > 60%

Item: `Cc1cccc(-c2cc(NS(=O)(=O)c3ccccc3)nn2-c2c(C)cc(C)cc2C)c1` | Emax: > 60%

Item: `CCCc1oc(NS(=O)(=O)c2ccccc2)nc1-c1ccccc1` | Emax: 30 to 60%

Item: `Cc1nc(NS(=O)(=O)c2ccccc2)sc1-c1ccccc1` | Emax: > 60%

Item: `O=S(=O)(Nc1onc(-c2ccc(Cl)cc2)c1-c1ccc(Cl)cc1)c1ccccc1` | Emax: 30 to 60%

Item: `O=S(=O)(Nc1nc(-c2ccccc2)c(-c2ccccc2)s1)c1ccccc1` | Emax: > 60%

Item: `COc1cccc(-c2cc(NS(=O)(=O)c3ccccc3)nn2-c2c(C)cc(C)cc2C)c1` | Emax: > 60%

Item: `O=S(=O)(Nc1ccn(Cc2ccccc2)n1)c1ccccc1` | Emax: < 30%

Item: `O=S(=O)(Nc1nn(-c2cccc(Cl)c2)cc1-c1ccccc1)c1ccccc1` | Emax: 30 to 60%

----------
- SYSTEM UNDER TEST: F508del in NIH 3T3 cells (Homo sapiens, UniProt P13569, DEL508-508)
- Construct: expressed in transfected cells
- EXPERIMENTAL DETAILS: 3T3 assay: membrane potential optical assay for F508del correction
- Assay type: cell-based
- MEASUREMENT SETUP: NIH 3T3 cells, F508del; read-out: 3T3 EC50
- Description: 1. Membrane Potential Optical Methods for Assaying F508del Modulation Properties of Compounds The assay utilizes fluorescent voltage sensing dyes to measure changes in membrane potential using a fluorescent plate reader (e.g., FLTPR III, Molecular Devices, Inc.) as a readout for increase in functional F508del in NIH 3T3 cells. […]
pEC50: −log10 of the molar value.
READOUT KIND: pEC50

Item: `Cc1sc(NS(=O)(=O)c2ccccc2)nc1-c1ccc2c(c1)OCCO2` | pEC50: 4.52 to 5.52

Item: `Cc1ccc(-c2nc(NS(=O)(=O)c3ccccc3)oc2-c2ccc(C)cc2)cc1` | pEC50: 5.52 to 6.00

Item: `Cc1ccc(-c2cc(NS(=O)(=O)c3ccccc3)nn2-c2c(C)cc(C)cc2C)cc1` | pEC50: > 6.00

Item: `Cc1cc(C)cc(-c2nc(NS(=O)(=O)c3ccccc3)ccc2C)c1` | pEC50: 4.52 to 5.52

Item: `Cc1ccc(NS(=O)(=O)c2ccccc2)nc1-c1cccc(C)c1C` | pEC50: 5.52 to 6.00

Item: `O=S(=O)(Nc1nn(-c2cccc(Cl)c2)cc1C1=CCCCC1)c1ccccc1` | pEC50: 5.52 to 6.00

Item: `Cc1cc(C)c(-n2nc(NS(=O)(=O)c3ccccc3)cc2-c2ccccc2)c(C)c1` | pEC50: 5.52 to 6.00

Item: `O=S(=O)(Nc1cc(Oc2ccccc2)cc(-c2ccccc2)n1)c1ccccc1` | pEC50: 5.52 to 6.00

Item: `COc1ccccc1C1(c2cnc(NS(=O)(=O)c3ccccc3)s2)CC1` | pEC50: 4.52 to 5.52

Item: `CCOC(=O)c1nc(NS(=O)(=O)c2ccccc2)sc1-c1ccccc1` | pEC50: 5.52 to 6.00

Item: `O=S(=O)(Nc1cc(-c2ccccc2)nc(-c2ccccc2)n1)c1ccccc1` | pEC50: 5.52 to 6.00

Item: `C=C(C)c1cn(-c2cccc(Cl)c2)nc1NS(=O)(=O)c1ccccc1` | pEC50: 4.52 to 5.52
